System: T47D
Assay: NCI tumour cell line growth inhibition, 48 h
The source made the active and inactive calls. Rule as the data show it: active = GI50 up to about 1.1 µM and inactive = higher.
Classes used: active, inactive

# COMPOUND, CAT
measured = [
    ("CCC(C(=O)C(=O)OC)P1(=O)OC(C)(C)CN1C(C)(C)C (centres undefined)", "inactive"),
    ("CN1CC2=C(OC(N)=C(C#N)C2c2cccs2)/C(=C/c2cccs2)C1 (centres undefined)", "active"),
    ("COc1ccc(C(=CCC(C)C2CCC3[C@@H]4C(OC(C)=O)CC5CC(OC(C)=O)CC[C@]5(C)C4CC(OC(C)=O)[C@]23C)c2ccc(OC)cc2)cc1 (some centres undefined)", "inactive"),
    ("Nc1ncc(Sc2ccccc2C(=O)O)s1", "inactive"),
    ("COC(=O)c1ccccc1C1=C([N+](=O)[O-])C(c2cccc(Br)c2)C(C#N)=C(N)O1 (centres undefined)", "inactive"),
    ("OCC(O)COCn1cc(Cn2ncc3c(NCc4ccccc4)ncnc32)nn1 (centres undefined)", "inactive"),
    ("CCOC(=O)c1sc2c(c1OC(=O)c1ccccc1)c(=O)n(-c1ccccc1)c(=S)n2-c1ccccc1", "inactive"),
    ("CSc1c(CC(=O)Nc2ccc(Cl)cc2)n(Cc2ccccc2)c2ccccc12", "inactive"),
    ("C=CCN(c1cc(OCc2ccccc2)c2c(c1)c(C)cn2S(=O)(=O)c1ccccc1)S(C)(=O)=O", "inactive"),
    ("COc1ccc(/C(C)=N/NC(=O)c2ccncc2)c(OC)c1", "inactive"),
    ("O=C(O)C/N=C(\\C(=N\\CC(=O)O)c1ccccc1)c1ccccc1", "inactive"),
    ("CC(=O)Nc1ccc(NC(=O)CC(=O)Nc2ccc(NC(C)=O)cc2)cc1", "inactive"),
    ("CCOC(=O)C(O)(C(=O)OCC)c1cc(C(C)(C)C)c(O)c(C(C)(C)C)c1", "inactive"),
    ("O=C1CC=C2C3CC4N(CCC45c4ccccc4N1C25)C/C3=C\\CO (centres undefined)", "inactive"),
    ("CCNC(=S)N/N=C(/C)c1cccc(/C(C)=N\\NC(=S)NCC)n1", "inactive"),
    ("CO[C@H]1[C@@H](O)[C@@H](C)O[C@@H](O[C@H]2CC[C@@]3(C)[C@H](CC[C@@H]4[C@@H]3CC[C@]3(C)[C@@H](C5=CC(=O)OC5)CC[C@]43O)C2)[C@@H]1O [ODOROSIDE H]", "active"),
    ("O=C1c2ccccc2-n2c1nc1ccccc1c2=O", "inactive"),
    ("N#CCOc1ccc(/C=C/C(=O)c2ccc(Cl)cc2)cc1", "inactive"),
    ("O=C1C[C@H](Sc2ccccc2)C2(OCCO2)[C@@H](Sc2ccccc2)C1", "inactive"),
]

###

Tested on: SK-MEL-2
Assay: NCI tumour cell line growth inhibition, 48 h
Activity calls are given as the source filed them. Cut-off read from the data, not from the text of the source: active = GI50 up to about 1.1 µM and inactive = higher. Peptide text beside a SMILES is read from it. * marks the point of attachment. Boc = CC(C)(C)OC(=O)*
Classes used: class 1 for active, class 0 for inactive

# COMPOUND, CAT
data = [
    ("CC1=C2C(=O)O[C@@H](c3ccoc3)[C@]2(C)CCC1=O [FRAXINELLONONE]", "class 0"),
    ("C/C=C/C#CC#C/C=C/C=C/C(O)CCO (centres undefined)", "class 0"),
    ("COc1ccc(/C=C2\\N=C(c3ccccc3)N(NC3=NC(=O)CC(=O)N3)C2=O)cc1", "class 0"),
    ("C=CCCCN1CCCCC1=S", "class 0"),
    ("CC(NC(=O)OC(C)(C)C)C(=O)NC(Cc1ccccc1)C(=O)NCC(=O)O (stereo not drawn) (Boc-Ala-Phe-Gly-OH; configuration not given here)", "class 0"),
    ("CC(C)[C@@H]1CC[C@@H](C)C[C@H]1OC(=O)c1c2n(c3ccccc13)C[C@H]1OC(C)(C)O[C@@H]21", "class 0"),
    ("C=CCOc1cc(NC(=S)c2ccoc2C)ccc1OC", "class 0"),
    ("C/C(=C\\c1csc(C)n1)[C@@H]1C[C@@H]2O[C@]2(C)CCC[C@H](C)[C@H](O)[C@@H](C)C(=O)C(C)(C)[C@@H](O)CC(=O)O1 [PATUPILONE]", "class 1"),
    ("O=C(N/C(=C\\c1cc(Cl)ccc1Cl)c1nc2cc(Cl)ccc2[nH]1)c1ccccc1", "class 0"),
]
